- Organism: Canis lupus familiaris
- Experiment: Percentage inhibition of free fatty acid liberation at 100 uM determined in canine myocardial lipase assay
- Assay type: functional

Line Notation: COc1ccc(C(=O)Oc2cccc3cccnc23)cc1
inhibition: 13%

Line Notation: Cc1ccccc1NC(=O)Oc1ccc2cccnc2c1
inhibition: 45%

Line Notation: O=C(Nc1ccccc1Cl)Oc1ccc2cccnc2c1
inhibition: 6%

Line Notation: COc1ccc(NC(=O)Oc2ccc(S(=O)(=O)O)c3cccnc23)cc1
inhibition: 83%

Line Notation: Cc1ccc(NC(=O)Oc2cccc3cccnc23)cc1
inhibition: 63%

Line Notation: C[C@@H](NC(=O)Oc1cccc2cccnc12)c1ccccc1
inhibition: 76%

Line Notation: Cc1cccc(NC(=O)Oc2cccc3cccnc23)c1
inhibition: 64%

Line Notation: COc1ccc(NC(=O)Oc2ccc3cccnc3c2)cc1
inhibition: 60%

Line Notation: O=C(Nc1ccccc1Cl)Oc1cccc2cccnc12
inhibition: 1%

Line Notation: O=C(Nc1ccccc1)Oc1cccc2cccnc12
inhibition: 69%

Line Notation: Cc1ccc2cccc(OC(=O)Nc3ccc(Br)cc3)c2n1
inhibition: 68%

Line Notation: O=C(Nc1cccc(C(F)(F)F)c1)Oc1cccc2cccnc12
inhibition: 56%

These data points were gathered from ChEMBL document CHEMBL1123595.
